Measurement protocol: APR_HepG2_MitoMembPot_72hr: Apredica 72-hour HepG2 Assay for Mitochondrial Membrane Potential (AID 2282917)
Test context: imaging, actives raise or lower the signal
Active and inactive are the calls of the source. Rule for the calls: active = hit-call score of the fitted dose curve at least 0.9, where 1 is the maximum; inactive = score below 0.9.
Would you mind answering with one of these outcomes? active, inactive

// known answers, use as guide
[
  {
    "Molecule": "COCC(C)O (stereo not given)",
    "Qualitative label": "inactive"
  },
  {
    "Molecule": "Cc1cc(C)c(O)c(C)c1",
    "Qualitative label": "inactive"
  },
  {
    "Molecule": "CC(C)(C)c1ccc(O)c(C(C)(C)C)c1",
    "Qualitative label": "inactive"
  },
  {
    "Molecule": "O=C(O)Cc1cc(I)c(Oc2cc(I)c(O)c(I)c2)c(I)c1",
    "Qualitative label": "inactive"
  }
]

Below: the item to evaluate.
Which outcome was entered for the molecule Cc1oc(-c2ccccc2)nc1CCOc1ccc(C[C@H](Nc2ccccc2C(=O)c2ccccc2)C(=O)O)cc1 in this test? active

----------
Measurement protocol: BSK_3C_Proliferation: Cell Proliferation Assessment in the BioMAP Diversity Plus: 3C Assay (AID 2283006)
Test context: primary human endothelial cells (HUVEC)
Calls of active or inactive are those of the source. The calls were made as follows: active = hit-call score of the fitted dose curve at least 0.9, where 1 is the maximum; inactive = score below 0.9.
Would you mind answering with one of these outcomes? active, inactive

// known answers, use as guide
[
  {
    "Compound": "CC1=C(/C=C/C(C)=C/C=C/C(C)=C/C(=O)O)C(C)(C)CCC1",
    "Qualitative label": "active"
  },
  {
    "Compound": "CCc1ccc(CCOc2ccc(CC3SC(=O)NC3=O)cc2)nc1 (centres undefined)",
    "Qualitative label": "inactive"
  },
  {
    "Compound": "Oc1cccc(O)c1",
    "Qualitative label": "inactive"
  }
]

Below: the item to evaluate.
Which outcome was entered for the compound c1ccc2c(c1)Cc1ccccc1-2 in this test? inactive

----------
Read-out: Hypoxia-inducible factor 1-alpha (Homo sapiens) (UniProt Q16665)
Sequence (Q16665 whole entry, looked up): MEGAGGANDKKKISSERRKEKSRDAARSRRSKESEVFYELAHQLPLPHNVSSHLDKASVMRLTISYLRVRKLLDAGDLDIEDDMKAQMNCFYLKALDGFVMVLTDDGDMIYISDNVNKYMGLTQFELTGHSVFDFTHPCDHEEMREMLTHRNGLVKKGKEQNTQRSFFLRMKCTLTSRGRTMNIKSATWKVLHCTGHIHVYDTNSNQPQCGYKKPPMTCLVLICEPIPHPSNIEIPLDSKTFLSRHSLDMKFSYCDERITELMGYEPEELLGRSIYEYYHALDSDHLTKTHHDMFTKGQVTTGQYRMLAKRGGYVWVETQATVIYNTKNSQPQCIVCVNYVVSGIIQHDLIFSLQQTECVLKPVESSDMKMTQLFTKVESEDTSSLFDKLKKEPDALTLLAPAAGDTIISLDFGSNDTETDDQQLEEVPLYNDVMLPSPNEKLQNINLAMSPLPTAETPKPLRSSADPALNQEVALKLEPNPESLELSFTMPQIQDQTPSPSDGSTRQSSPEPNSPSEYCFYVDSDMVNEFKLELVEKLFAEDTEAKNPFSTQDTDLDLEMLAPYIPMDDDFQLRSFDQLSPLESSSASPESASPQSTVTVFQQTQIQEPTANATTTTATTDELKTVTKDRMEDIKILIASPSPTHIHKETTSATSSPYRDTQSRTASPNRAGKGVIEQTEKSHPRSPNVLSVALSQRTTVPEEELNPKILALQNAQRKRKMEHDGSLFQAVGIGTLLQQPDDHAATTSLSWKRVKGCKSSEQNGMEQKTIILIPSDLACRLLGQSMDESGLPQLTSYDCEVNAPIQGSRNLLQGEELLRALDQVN
Measurement protocol: LTEA_HepaRG_HIF1A: Life Technologies and Expression Analysis (LTEA) Assay for Hypoxia-inducible factor 1 (HIF1A) Trancription factor using HepaRG (AID 2283503);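 note: HIF1A transcript by TaqMan qRT-PCR normalized to ACTB GAPDH and POLR2A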
Test context: mRNA level, 48 h; actives raise or lower the signal
Activity calls are given as the source filed them. Rule for the calls: active = hit-call score of the fitted dose curve at least 0.9, where 1 is the maximum; inactive = score below 0.9.
Would you mind answering with one of these outcomes? active, inactive

// known answers, use as guide
[
  {
    "Compound": "COc1ccc([N+](=O)[O-])cc1N",
    "Qualitative label": "inactive"
  },
  {
    "Compound": "O=C(OCCOCCOC(=O)c1ccccc1)c1ccccc1",
    "Qualitative label": "inactive"
  },
  {
    "Compound": "CN1CCN(c2ccccc2/C=C2\\SCCN(c3ccc(Cl)c(Cl)c3)C2=O)CC1",
    "Qualitative label": "inactive"
  },
  {
    "Compound": "CC(C)(C)c1cc(C(C)(C)C)c(O)c(C(C)(C)C)c1",
    "Qualitative label": "inactive"
  },
  {
    "Compound": "Cc1cc(CCN2CCN(c3nsc4ccccc34)CC2)cc2c1NC(=O)CC2(C)C",
    "Qualitative label": "inactive"
  },
  {
    "Compound": "O=C(O)Cc1cc(I)c(Oc2cc(I)c(O)c(I)c2)c(I)c1",
    "Qualitative label": "active"
  },
  {
    "Compound": "Oc1cc2ccccc2c2ccccc12",
    "Qualitative label": "inactive"
  },
  {
    "Compound": "CCc1nn(C2CCCCC2)c2cc(C3(C#N)CCC(C(=O)O)CC3)ccc12 (stereo not given)",
    "Qualitative label": "inactive"
  },
  {
    "Compound": "CCCCCCCCC(=O)O",
    "Qualitative label": "inactive"
  },
  {
    "Compound": "Nc1cccc2c(N)cccc12",
    "Qualitative label": "inactive"
  }
]

Which outcome was entered for the compound OCCC(F)(F)C(F)(F)C(F)(F)C(F)(F)C(F)(F)C(F)(F)C(F)(F)C(F)(F)F in this test? inactive

Which outcome was entered for the compound CCCCCCCCCCCCN1CCCC1=O in this test? inactive
